Exercise: for every item that follows, state its recorded z-score.
- ASSAY REMARKS: basal HepG2 mitochondrial membrane potential changes, profiling panel, cell-based, JC-1 fluorescence, 24 h, 100 nL compound (AID 1167); also: test concentration not given here
- CONDITION PARAMETERS: higher = more signal

>  <COMPOUND>
COc1ccc(O[C@H]2C=C[C@@H](c3ccccc3)O[C@@H]2CON=C2[C@H]3CCn4c(=O)n(-c5ccccc5)c(=O)n4[C@H]3[C@H](O)[C@@H]3O[C@H]23)cc1

>  <z-score>
-0.0967

$$$$
>  <COMPOUND>
COc1cccc([C@H]2Oc3ccc(OC)cc3C(=NO[C@@H](C)c3cn([C@H](CO)Cc4ccccc4)nn3)[C@@H]2O)c1

>  <z-score>
-1.22

$$$$
>  <COMPOUND>
CC(C)CON=C1C[C@@H](O)[C@@H](O)[C@@H]2[C@@H]3C(=O)N(C[C@@H]4CCCO4)C(=O)[C@@H]3CC[C@@H]12

>  <z-score>
-0.49

$$$$
>  <COMPOUND>
CC(C)=CCCC(C)=CCON=C1C[C@@H](O)[C@@H](O)[C@@H]2[C@@H]3C(=O)N(C(C)(C)C)C(=O)[C@@H]3CC[C@H]12

>  <z-score>
-0.00723

$$$$
>  <COMPOUND>
CON=C[C@@H](NS(=O)(=O)c1ccc(C)cc1)[C@H](C)C=CCC(=O)OC

>  <z-score>
0.271

$$$$

// each listed compound needs a value for z-score
1. O=c1n(-c2ccccc2)c(=O)n2n1CC[C@@H]1C(=NOCc3ccccc3)[C@H]3O[C@H]3[C@@H](O)[C@@H]12
2. O=C(C=Cc1ccc2c(c1)OCO2)c1ccc(F)cc1
3. COC(=O)CC=C[C@@H](C)[C@@H](C=NOC(C)CN1CCCc2nc(C)c(C)cc21)OC (stereo partly specified)
4. O=C1[C@H]2[C@H]3[C@H](O)[C@H](O)CC(=NOCc4ccccc4)[C@@H]3CC[C@H]2C(=O)N1Cc1ccc2c(c1)OCO2

-0.406
-0.698
-0.16
-0.335

// each listed compound needs a value for z-score
1. O=C1[C@H]2[C@H]3[C@H](O)[C@H](O)CC(=NOC[C@@H](O)COCc4ccco4)[C@H]3CC[C@H]2C(=O)N1c1ccc(F)cc1F
2. CO[C@@H]1COC(=O)[C@H](CCSC)NC(=O)CC=C[C@@H](C)COC(=O)CCC[C@H]1C
3. Cc1cc2c(c(=O)o1)[C@@H](O)[C@H]1O[C@H]1C2=O
4. CCOC(=O)[C@H](CC(C)C)NC(=O)CCC1CC(OC(=O)NCCc2ccc(F)cc2)CC2(CCCC(COC(=O)NCC(c3ccccc3)c3ccccc3)O2)O1 (stereo partly specified)
5. CC(C)CON=C1[C@H]2CCn3c(=O)n(Cc4cc5c(cc4Cl)OCO5)c(=O)n3[C@H]2[C@H](O)[C@@H]2O[C@H]12
6. O=C1C2=CC[C@H]3C(=O)N(c4cccc(Oc5ccccc5)c4)C(=O)[C@H]3[C@H]2[C@H](O)[C@@H]2O[C@H]12
7. Cc1cc2c(nc1C)CCCN2CC(O)CN1CCCc2nc(C)c(C)cc21

1. 0.501
2. 1.95
3. -0.352
4. -0.898
5. -0.0638
6. -0.778
7. 0.00162

---

- MEASUREMENT TARGET: Concanavalin-A (Canavalia ensiformis)
- ASSAY REMARKS: ConA small-molecule binders, primary screen, artefact control for SMM control protein annotation, biochemical, small-molecule microarray, Alexa647 label, 635 nm (AID 1127);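 also: z combines 667 nm emission intensity with signal-to-noise across three replicate slides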
- CONDITION PARAMETERS: ConA-A647 binding fluorescence, higher = more signal
Use 0.02 as the dividing line for composite z-score, with the line itself on the Satisfied side and lower values as Not satisfied.

These recorded examples may help you get a feel for the data.
>  <COMPOUND>
CC1O[C@H]2C3=C(C(=O)[C@@H]4O[C@@H]4[C@H]3O)[C@@H]1C1[C@@H](C)OC=C3[C@H](O)C4O[C@@H]4C(=NOCc4ccccc4)[C@]312 (some centres not stated)

>  <CLASS NAME>
Not satisfied

$$$$
>  <COMPOUND>
CC(=O)Nc1ccc([C@@H]2N[C@H](C(=O)O)CC[C@H]2C)cc1

>  <CLASS NAME>
Satisfied

$$$$
>  <COMPOUND>
CO[C@@H]1COC(=O)CC=C[C@@H](C)[C@@H]2C=C[C@H](O)[C@@H](COC(=O)CC=C[C@H]1C)O2

>  <CLASS NAME>
Not satisfied

$$$$
>  <COMPOUND>
C=CC[C@@H]1C=C[C@H](ON=C[C@@H](C)[C@H](OCc2ccccc2)C(C)C)[C@@H](CO)O1

>  <CLASS NAME>
Not satisfied

$$$$
>  <COMPOUND>
CCOC(=O)NN=C1C[C@@H](O)[C@@H](O)[C@@H]2[C@@H]3C(=O)N(c4ccc(F)cc4F)C(=O)[C@@H]3CC[C@@H]12

>  <CLASS NAME>
Satisfied

$$$$

I'd appreciate it if you could say whether CCOC(=O)[C@H](CC(C)C)NC(=O)CCC1CC(OC(=O)NCc2cccc3ccccc23)CC2(CCCC(COC(=O)NCCC(C)C)O2)O1 (some centres not stated) has composite z-score at least equal to 0.02.
Not satisfied

I'd appreciate it if you could say whether Cn1c(=O)n2n(c1=O)[C@H]1[C@H](O)[C@@H]3O[C@@H]3C(=NOCc3ccccc3)[C@H]1CC2 has composite z-score at least equal to 0.02.
Not satisfied

---

Exercise: for every item that follows, state its recorded composite z-score.
- MEASUREMENT TARGET: Neurogenic locus notch homolog protein 3 (Homo sapiens)
- ASSAY REMARKS: NOTCH3 binders on small-molecule microarray, primary screen, biochemical, 635/667 nm fluorescence (AID 1096)
- CONDITION PARAMETERS: NOTCH3 binding, 635 nm fluorescence, higher = more signal
Give bare numbers.

Examples with answers:
>  <MOLECULE>
CCc1cc2c(nc1CC)CCN(CCC(C)=NO[C@H](C)c1cn([C@H](CO)Cc3ccccc3)nn1)C2

>  <composite z-score>
-0.171

$$$$
>  <MOLECULE>
C=CC[C@@H]1C=C[C@H](ON=C[C@@H](C)[C@H](OCc2ccccc2)C(C)C)[C@@H](CO)O1

>  <composite z-score>
-0.0585

$$$$
>  <MOLECULE>
COC(=O)[C@@H]1CC[C@@H](C)[C@H](c2ccc(Br)cc2)N1

>  <composite z-score>
-0.275

$$$$
>  <MOLECULE>
C[C@H]1COC(=O)[C@@H]2CCCN2C(=O)[C@@H](C)COC(=O)[C@H](Cc2ccccc2)NC1=O

>  <composite z-score>
0.889

$$$$
>  <MOLECULE>
CC(CCN1CCCCc2nc(C)c(C)cc21)=NO[C@H](C)c1cn([C@H](CO)Cc2ccccc2)nn1

>  <composite z-score>
0.108

$$$$
>  <MOLECULE>
CCOC(=O)NN=C1C[C@@H](O)[C@@H](O)[C@@H]2[C@@H]3C(=O)N(Cc4ccc5c(c4)OCO5)C(=O)[C@@H]3CC[C@H]12

>  <composite z-score>
-0.578

$$$$
>  <MOLECULE>
O=C1C[C@@H](O)[C@@H](O)[C@@H]2[C@@H]3C(=O)N(C[C@@H]4CCCO4)C(=O)[C@@H]3CC[C@@H]12

>  <composite z-score>
0.472

$$$$
>  <MOLECULE>
O=C1CCCC=C1C(O)CCOC(c1ccccc1)(c1ccccc1)c1ccccc1 (stereo not given)

>  <composite z-score>
0.103

$$$$
>  <MOLECULE>
C[C@@H](c1ccccc1)N1C(=O)[C@H]2[C@H]3[C@H](O)[C@H](O)CC(=O)[C@H]3CC[C@H]2C1=O

>  <composite z-score>
0.521

$$$$
>  <MOLECULE>
O=C1[C@H]2[C@H]3[C@H](O)[C@H](O)CC(=NOCc4ccccc4)[C@@H]3CC[C@H]2C(=O)N1c1ccc(F)cc1F

>  <composite z-score>
-0.283

$$$$

// each listed molecule needs a value for composite z-score
1. CO[C@@H]1COC(=O)[C@@H](C)NC(=O)CC=C[C@@H](C)[C@H](NS(=O)(=O)c2ccc(C)cc2)COC(=O)[C@H](C)NC(=O)CC=C[C@H]1C
2. C[C@@H](ON=C1[C@H]2CCn3c(=O)n(-c4ccccc4)c(=O)n3[C@H]2[C@H](O)[C@@H]2O[C@H]12)c1cn([C@@H]2COC[C@H]2O)nn1

[0.225, 0.72]

// each listed molecule needs a value for composite z-score
1. COc1ccc(O[C@H]2C=C[C@@H](c3ccccc3)O[C@@H]2CON=C(C)CCC(=O)OC[C@H]2O[C@H](c3ccccc3)C=C[C@@H]2Oc2ccc(OC)cc2)cc1
2. CO[C@H]1COC(=O)[C@@H](C)COC(=O)[C@@H](OCc2ccccc2)C=C[C@@H]1C
3. CC(C)CON=C1C[C@@H](O)[C@@H](O)[C@@H]2[C@@H]3C(=O)N(C[C@@H]4CCCO4)C(=O)[C@@H]3CC[C@@H]12
4. CC(C)[C@@H](OCc1ccccc1)[C@H](C)C=NOC[C@@H](O)COCc1ccco1
5. CCO[C@H](c1cc(OC)cc([N+](=O)[O-])c1OC)[C@H](C)C=CCC(=O)OC

[0.0708, -0.165, -0.435, -0.0957, 0.0565]
